These measurements were taken from the supplement of paper PMC8882468.

In this section we review reported CTG-3D luminescence at 96 h values for a set of compounds.
Test system: HCI-012 (organoid from a breast cancer xenograft)
Assay: CTG-3D luminescence at 96 h relative to day-0 seeding control (ratio to day 0); higher = more growth / less cytotoxicity; PDxO 3D drug screen (set 2), 96 h, CTG-3D normalised to day-0 seeding control.
Conditions: 625 fM; days in culture: 284
// keep it numeric: no unit symbol after the value

For orientation, consider the following solved cases.
compound="O=C(c1cc(Cc2n[nH]c(=O)c3ccccc23)ccc1F)N1CCN(C(=O)C2CC2)CC1 [olaparib]" measure="CTG-3D luminescence at 96 h" result=3
compound="CC(=O)c1c(C)c2cnc(Nc3ccc(N4CCNCC4)cn3)nc2n(C2CCCC2)c1=O [palbociclib]" measure="CTG-3D luminescence at 96 h" result=4.06

If you can, please state the reported CTG-3D luminescence at 96 h value of CS(=O)(=O)CCNCc1ccc(-c2ccc3ncnc(Nc4ccc(OCc5cccc(F)c5)c(Cl)c4)c3c2)o1 [lapatinib] .
3.12

====

Tested on: HCI-001 (organoid from a triple-negative breast cancer xenograft)
Assay: CTG-3D luminescence at 96 h relative to day-0 seeding control (ratio to day 0); higher = more growth / less cytotoxicity; PDxO 3D drug screen (set 2), 96 h, CTG-3D normalised to day-0 seeding control.
Details: 0.00025 µM; days in culture: 365
measure: CTG-3D luminescence at 96 h
// keep it numeric: no unit symbol after the value

compound_structure=C[C@@H](Nc1cc(F)cc(F)c1)c1cc(C(=O)N(C)C)cc2c(=O)cc(N3CCOCC3)oc12 result=2.2
compound_structure=CCOc1ccn(-c2ccc(F)cc2)c(=O)c1C(=O)Nc1ccc(Oc2ccnc(N)c2Cl)c(F)c1 result=2.78
compound_structure=Nc1cc(C(F)(F)F)c(-c2cc(N3CCOCC3)nc(N3CCOCC3)n2)cn1 result=2.29

Then there is this compound:
If you can, please state the reported CTG-3D luminescence at 96 h value of `CO[C@H]1C[C@@H]2CC[C@@H](C)[C@@](O)(O2)C(=O)C(=O)N2CCCC[C@H]2C(=O)O[C@H]([C@H](C)C[C@@H]2CC[C@@H](O)[C@H](OC)C2)CC(=O)[C@H](C)/C=C(\C)[C@@H](O)[C@@H](OC)C(=O)[C@H](C)C[C@H](C)/C=C/C=C/C=C/1C` .
1.51

====

Tested on: HCI-002 (organoid from a triple-negative breast cancer xenograft)
Test: CTG-3D luminescence at 96 h relative to day-0 seeding control (ratio to day 0); higher = more growth / less cytotoxicity; PDxO 3D drug screen (set 2), 96 h, CTG-3D normalised to day-0 seeding control.
Details: 0.005 µM; days in culture: 155
Output Met for CTG-3D luminescence at 96 h not less than 5; output Not met otherwise.

Check the entry `CC(C)n1nc(-c2ccc3oc(N)nc3c2)c2c(N)ncnc21` : does CTG-3D luminescence at 96 h equal or exceed 5?
Met

Please give the result for `C[C@@H](Nc1cc(F)cc(F)c1)c1cc(C(=O)N(C)C)cc2c(=O)cc(N3CCOCC3)oc12` too.
Met

Please give the result for `CC(=O)c1c(C)c2cnc(Nc3ccc(N4CCNCC4)cn3)nc2n(C2CCCC2)c1=O` too.
Met

Please give the result for COc1cccc2c1C(=O)c1c(O)c3c(c(O)c1C2=O)C[C@@](O)(C(=O)CO)C[C@@H]3O[C@H]1C[C@H](N)[C@@H](O)[C@H](C)O1 [epirubicin] too.
Not met

Please give the result for `CCOc1ccn(-c2ccc(F)cc2)c(=O)c1C(=O)Nc1ccc(Oc2ccnc(N)c2Cl)c(F)c1` too.
Met

====

System: HCI-001
Assay: CTG-3D luminescence at 96 h relative to day-0 seeding control (ratio to day 0); higher = more growth / less cytotoxicity; PDxO 3D drug screen, 96 h, CTG-3D normalised to day-0 seeding control.
Details: 0.005 µM; days in culture: 240
measure: CTG-3D luminescence at 96 h
// keep it numeric: no unit symbol after the value

For orientation, consider the following solved cases.
compound="CCc1c2c(nc3ccc(O)cc13)-c1cc3c(c(=O)n1C2)COC(=O)[C@]3(O)CC [SN-38]" measure="CTG-3D luminescence at 96 h" result=0.767
compound="C=CC(=O)N1CCC[C@@H](n2nc(-c3ccc(Oc4ccccc4)cc3)c3c(N)ncnc32)C1 [ibrutinib]" measure="CTG-3D luminescence at 96 h" result=0.958
compound="C[C@H](NC(=O)CCC(F)(F)F)C(=O)N[C@@H]1C(=O)N(CCO)c2ncccc2-c2ccccc21 [crenigacestat]" measure="CTG-3D luminescence at 96 h" result=1.03
compound="CC[C@H](NC(=O)[C@H](C)NC)C(=O)N1C[C@@H](O)C[C@H]1Cc1c(-c2[nH]c3cc(F)ccc3c2C[C@@H]2C[C@H](O)CN2C(=O)[C@H](CC)NC(=O)[C@H](C)NC)[nH]c2cc(F)ccc12 [birinapant]" measure="CTG-3D luminescence at 96 h" result=0.766
compound="C=CCn1c(=O)c2cnc(Nc3ccc(N4CCN(C)CC4)cc3)nc2n1-c1cccc(C(C)(C)O)n1 [adavosertib]" measure="CTG-3D luminescence at 96 h" result=1.22

If you can, please state the reported CTG-3D luminescence at 96 h value of `CC(C)(C(=O)NCC(F)(F)C(F)(F)F)C(=O)N[C@@H]1C(=O)Nc2ccccc2-c2ccccc21` .
0.87

Please give the result for C[C@@H]1COCCN1c1cc(C2([S@](C)(=N)=O)CC2)nc(-c2cc[nH]c3nccc2-3)n1 [ceralasertib] too.
0.905

Please give the result for Cc1nc(-c2cn3c(n2)-c2ccc(-c4cnn(C(C)(C)C(N)=O)c4)cc2OCC3)n(C(C)C)n1 [taselisib] too.
1.07

Please give the result for CCN1CCN(Cc2ccc(Nc3ncc(F)c(-c4cc(F)c5nc(C)n(C(C)C)c5c4)n3)nc2)CC1 [abemaciclib] too.
0.704

Please give the result for C/C=C1\NC(=O)[C@H]2CSSCC/C=C/[C@H](CC(=O)N[C@H](C(C)C)C(=O)N2)OC(=O)[C@H](C(C)C)NC1=O [romidepsin] too.
0.504

====

System: HCI-016 (organoid from a triple-negative breast cancer xenograft)
Experiment: CTG-3D luminescence at 96 h relative to day-0 seeding control (ratio to day 0); higher = more growth / less cytotoxicity; PDxO 3D drug screen, 96 h, CTG-3D normalised to day-0 seeding control.
Conditions: 625 fM; days in culture: 153
measure: CTG-3D luminescence at 96 h
// keep it numeric: no unit symbol after the value

For orientation, consider the following solved cases.
compound="CCc1c2c(nc3ccc(O)cc13)-c1cc3c(c(=O)n1C2)COC(=O)[C@]3(O)CC [SN-38]" result=2.02
compound=CCN(c1cc(C#CCN2CCOCC2)cc(C(=O)NCc2c(C)cc(C)[nH]c2=O)c1C)[C@H]1CC[C@H](N(C)CCOC)CC1 result=3.1
compound="CN(Cc1cnc2nc(N)nc(N)c2n1)c1ccc(C(=O)N[C@@H](CCC(=O)O)C(=O)O)cc1 [methotrexate]" result=2.86
compound="COc1cc2c(Oc3ccc4[nH]c(C)cc4c3F)ncnc2cc1OCCCN1CCCC1 [cediranib]" result=2.44
compound="CC[C@H](NC(=O)[C@H](C)NC)C(=O)N1C[C@@H](O)C[C@H]1Cc1c(-c2[nH]c3cc(F)ccc3c2C[C@@H]2C[C@H](O)CN2C(=O)[C@H](CC)NC(=O)[C@H](C)NC)[nH]c2cc(F)ccc12 [birinapant]" result=2.37
compound="Cc1cc(Nc2ncc(Cl)c(Nc3ccccc3S(=O)(=O)C(C)C)n2)c(OC(C)C)cc1C1CCNCC1 [ceritinib]" result=2.35

Give HCI-016 CTG-3D luminescence at 96 h for Cc1cc(Nc2ncnc3ccc(NC4=NC(C)(C)CO4)cc23)ccc1Oc1ccn2ncnc2c1 [tucatinib]
1.94

Please give the result for NC(=O)c1cccc2cn(-c3ccc([C@@H]4CCCNC4)cc3)nc12 [niraparib] too.
2.67

Please give the result for Nc1ccn([C@@H]2O[C@H](CO)[C@@H](O)C2(F)F)c(=O)n1 [gemcitabine] too.
2.4

Please give the result for C/C=C1\NC(=O)[C@H]2CSSCC/C=C/[C@H](CC(=O)N[C@H](C(C)C)C(=O)N2)OC(=O)[C@H](C(C)C)NC1=O [romidepsin] too.
2.21

====

In this section we review reported CTG-3D luminescence at 96 h values for a set of compounds.
System: HCI-011.E2 (organoid from an ER-positive breast cancer xenograft)
Test: CTG-3D luminescence at 96 h relative to day-0 seeding control (ratio to day 0); higher = more growth / less cytotoxicity; PDxO 3D drug screen, 96 h, CTG-3D normalised to day-0 seeding control.
Conditions: 0.1 µM; days in culture: 74
// keep it numeric: no unit symbol after the value

For orientation, consider the following solved cases.
compound="C=CC(=O)N1CCC[C@@H](n2nc(-c3ccc(Oc4ccccc4)cc3)c3c(N)ncnc32)C1 [ibrutinib]" measure="CTG-3D luminescence at 96 h" result=2.48
compound="CC[C@H](NC(=O)[C@H](C)NC)C(=O)N1C[C@@H](O)C[C@H]1Cc1c(-c2[nH]c3cc(F)ccc3c2C[C@@H]2C[C@H](O)CN2C(=O)[C@H](CC)NC(=O)[C@H](C)NC)[nH]c2cc(F)ccc12 [birinapant]" measure="CTG-3D luminescence at 96 h" result=1.82
compound="NC1(C(=O)N[C@@H](CCO)c2ccc(Cl)cc2)CCN(c2nc[nH]c3nccc2-3)CC1 [capivasertib]" measure="CTG-3D luminescence at 96 h" result=1.54
compound="C[C@H](NC(=O)CCC(F)(F)F)C(=O)N[C@@H]1C(=O)N(CCO)c2ncccc2-c2ccccc21 [crenigacestat]" measure="CTG-3D luminescence at 96 h" result=2.06

Then there is this compound:
If you can, please state the reported CTG-3D luminescence at 96 h value of C[C@@H]1COCCN1c1cc(C2([S@](C)(=N)=O)CC2)nc(-c2cc[nH]c3nccc2-3)n1 [ceralasertib] .
1.85
